Entry source: patent US20050214744A1

- System: SM26-derived strain K103N, Y181C, L100I, V189V/I, E194G/E
- PROTOCOL_SUMMARY: Antiviral activity against strain selected with compound 1 0.200 μM (day 7), acutely infected MT4 cells
- Assay type: cell-based, HIV-1
- CONDITION_INFO: Human immunodeficiency virus 1, MT4, 168 h, SM26 selected with Compound 1 0.200 μM, breakthrough day 7, additional L100I, unit inferred, read-out: Median EC50
For each of the compounds below, state its EC50.
One number for each entry, in nM.

* O=C1Nc2ccc(Cl)cc2[C@@](C#CC2CC2)(C(F)(F)F)O1 [Efavirenz] | 2750

Here is another compound to look at.
Sure, the documented EC50 for Cc1cc(C#N)cc(C)c1Oc1nc(Nc2ccc(C#N)cc2)nc(N)c1Br [Compound 1] is 149
